system: Streptococcus pneumoniae SV-1; experiment: In vitro antibacterial activity, microtitration dilution method (MIC); format: cell-based; settings: SV1; Streptococcus pneumoniae SV-1, microtitration dilution; read-out: Minimal Inhibitory Concentration MIC
Strictly below 0.03 µg/mL in MIC: 1. Otherwise: -1.

COMPOUND	LABEL_VALUE
Cc1c(F)c(N2CCNCC2)c(Cl)c2c1c(=O)c(C(=O)O)cn2C1CC1	-1
Cc1c(F)c(N2CCNCC2)c(F)c2c1c(=O)c(C(=O)O)cn2C1CC1	1
Cc1c(F)c(N2CCC(N)C2)nc2c1c(=O)c(C(=O)O)cn2-c1ccc(F)cc1F (centres unmarked)	-1
Cc1c(F)c(N2CCNCC2)cc2c1c(=O)c(C(=O)O)cn2-c1ccc(F)cc1F	-1
Cc1c(F)c(N2CC(C)NC(C)C2)cc2c1c(=O)c(C(=O)O)cn2-c1ccc(F)cc1F (centres unmarked) [Ex. 17b]	-1
Cc1c(F)c(N2CCC(N)C2)c(F)c2c1c(=O)c(C(=O)O)cn2C1CC1 (centres unmarked)	1
Cc1c(F)c(N2CCC(N)C2)cc2c1c(=O)c(C(=O)O)cn2-c1ccc(F)cc1F (centres unmarked) [Ex. 17c]	1
Cc1c(F)c(N2CC[C@@H]([C@H](C)N)C2)nc2c1c(=O)c(C(=O)O)cn2-c1ccc(F)cc1F	1
CCNCC1CCN(c2c(F)c(C)c3c(=O)c(C(=O)O)cn(C4CC4)c3c2F)C1 (centres unmarked)	1
Cc1c(F)c(N2CCNCC2)cc2c1c(=O)c(C(=O)O)cn2C1CC1	-1
Cc1c(F)c(N2CCC(N)C2)nc2c1c(=O)c(C(=O)O)cn2C1CC1 (centres unmarked)	1
Cc1c(F)c(N2CCC(N)C2)cc2c1c(=O)c(C(=O)O)cn2C1CC1 (centres unmarked)	1
CCn1cc(C(=O)O)c(=O)c2c(C)c(F)c(N3CCNCC3)c(F)c21	-1
Cc1c(F)c(N2CCNCC2)nc2c1c(=O)c(C(=O)O)cn2C1CC1	-1
